assay: NCI Yeast Anticancer Drug Screen. Data for the mlh1 rad18 strain (AID 175); conditions: S. cerevisiae mlh1 rad18 strain growth inhibition; at 50.0 µM; hits give high values
This is part of a sample that, as a whole, favours compounds with a hit. Of some 79,000 tested, about 15% had one in any assay.
# growth inhibition >= 90% gives True, anything below gives False

Would you please look over these solved cases?
1. CCCCCCCCOc1ccc(/C=C/C(C)=N/NC(N)=NC)cc1OC    True
2. COc1ccc(CN(C)c2c(C)ccc3ccccc23)cc1    False
3. O=C(NNC(=O)c1cccc(C(=O)NNC(=O)c2ccc(Cl)c(Cl)c2)n1)c1ccc(Cl)c(Cl)c1    False

Consider now this further compound.
For this compound, is measured growth inhibition 90% or higher? C=CC[C@]1(C(C)C(OC(C)=O)c2ccc3c(c2)OCO3)C[C@@H](OC)C=CC1=O (some centres not stated) False

###

assay: NCI Yeast Anticancer Drug Screen. Data for the rad50 strain (AID 155);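 further: 0% = growth of vehicle-only cultures of the same strain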; conditions: S. cerevisiae rad50 strain growth inhibition; at 50.0 µM
Compounds without any hit were thinned out: in the full panel of roughly 79,000, 15% have a hit. The source made the active and inactive calls. Rule as the data show it: active = growth inhibition above about 70%; inactive = the rest.
Respond with a class label; see active, inactive

Would you please look over these solved cases?
1) C/C(=N\NC(=S)N(C)C1CCCCC1)c1ccc2ccccc2n1    active
2) CC(C)(c1ccccc1)c1ccc2[nH]c(C(C)(C)c3ccccc3)c(CC(=O)O)c2c1    active
3) O=C1C(c2c[nH]c3ccc(Br)cc23)=Nc2ccc(Br)cc21    active
4) CC1=C(/C=C/C(C)=N/NC(N)=S)C(C)(C)CCC1    active

Consider now this further compound.
What outcome does the record of this test show for CC(=O)OC1CCC2(C)C3CCC4(C)C(C(C)CCCC(C)C)CCC4C3CCC23OC13C (stereo not given) ? inactive

###

test: NCI Yeast Anticancer Drug Screen. Data for the mec2-1 strain (AID 157); settings: S. cerevisiae mec2-1 strain, at 50.0 µM (retest, dose inferred, filed as 5.0)
The panel holds about 79,000 compounds, 15% with a hit somewhere; the sample as a whole holds those more often. Calls of active or inactive are those of the source. No stated cut-off is given here; in the data, active means growth inhibition above about 70%; inactive means the rest.
Respond with a class label; see True for active, False for inactive

1. CC1CCN(CCC(=O)c2cccc(O)c2)CC1    False
2. CCC[CH2][Sn]1([CH2]CCC)[O]C(=O)CN=Cc2c(ccc3ccccc23)[O]1    True
3. CCCCCCCC/C=C\CCCCCCCCN1CCOCC1    False
4. Cc1ccc(C)c(NC(=O)CCC(=O)C(C#N)c2cccc3ccccc23)c1 (centres undefined)    False

What outcome does the record of this test show for COc1cccc(C2c3cc4c(cc3OC(Nc3ccccc3)C2C)OCO4)c1O (centres undefined) ? True

Thanks! And Cc1c2c(c(O)c3c(O)cccc13)C(=O)C1(O)C(=O)C(C(N)=O)C(O)C(N(C)C)C1C2 (centres undefined) ? True

Thanks! And `CC(=O)Nc1nnc(C)s1` ? False

###

test: NCI Yeast Anticancer Drug Screen. Data for the bub3 strain (AID 167); settings: S. cerevisiae bub3 mutant strain, at 5.0 µM (retest, dose inferred, filed as 0.5), hits give high values
This is part of a sample that, as a whole, favours compounds with a hit. Of some 79,000 tested, about 15% had one in any assay.
reportedEndpoint: growth inhibition (%)
Answers are plain numbers, in %.

These solved cases illustrate the format of a correct answer.
1. O=C(Cn1cnc2ccc([N+](=O)[O-])cc21)N1CCN(c2ccccc2)CC1    10
2. O=C(O)[C@@H]1CCCC[C@@H]1C(=O)N(C1CCCCC1)C1CCCCC1    -5
3. CC(C)(C)NC1=NC(C(F)(F)F)(C(F)(F)F)NC(=O)N1    -56
4. CCCCNCCCCCCCCCCCl    56
5. C=CCOc1ccc(N=NC(C#N)C#N)cc1    -2

For every item in the list below, what is its measured growth inhibition?
1. Cc1ccc(C)c(NC(=O)CCC(=O)C(C#N)c2cccc3ccccc23)c1 (centres undefined)
2. N=C(/C(=C/c1ccccc1)c1ccccc1)c1ccccc1
3. S=C(N/N=C(/c1ccccc1)c1ccccn1)Nc1cccc(Cl)c1

1: -5; 2: 25; 3: 40
